Reported IC50 values follow for various binders
target-entity: T1, trypsin isolated from bovine pancreas (bovine, UniProt P00760 24-246)
T1 construct: also called bovine trypsin
T1 sequence (P00760 24-246): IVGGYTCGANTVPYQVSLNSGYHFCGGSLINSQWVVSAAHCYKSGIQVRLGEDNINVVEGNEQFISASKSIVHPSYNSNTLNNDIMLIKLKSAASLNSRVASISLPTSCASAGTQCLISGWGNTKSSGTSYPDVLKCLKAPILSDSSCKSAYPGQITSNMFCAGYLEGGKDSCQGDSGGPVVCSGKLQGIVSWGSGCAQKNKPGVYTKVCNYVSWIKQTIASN
assay: column 9: trypsin activity assay, 0.25 nM trypsin
Method: 0.25 nM trypsin isolated from bovine pancreas and 0.19-100 nM anti-KLK5 inhibitors were pre-incubated for 30 minutes prior to addition of 50 μM Boc-VPR-AMC. […] Trypsin selectivity assay was performed at room temperature in a 384-well plate (black, low-volume round bottom, Corning #4514) with a final reaction volume of 15 μL. […] Reaction rates (expressed as RFU/s) were calculated by linear regression in the range 204-3570 seconds. […]

Worked examples, 8 binders total:
[[record]]
binder = "9H5 (antibody, V domains shown, Rabbit monoclonal; also called Chimeric 9H5; KLK5.9H5 (complex sample)) VH: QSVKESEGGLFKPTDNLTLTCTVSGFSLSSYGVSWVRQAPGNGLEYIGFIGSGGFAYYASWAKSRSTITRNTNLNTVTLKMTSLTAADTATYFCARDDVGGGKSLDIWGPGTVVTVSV VL: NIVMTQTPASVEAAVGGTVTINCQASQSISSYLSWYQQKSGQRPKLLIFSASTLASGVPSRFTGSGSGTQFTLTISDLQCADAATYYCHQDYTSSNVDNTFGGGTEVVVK"
readout = "IC50"
endpoint_value = "> 0.1 µM"

[[record]]
binder = "8F5 (antibody, V domains shown) VH: QSVKESEGGLFKPTDTLTLTCTVSGFSLSSYPISWVRQAPGNGLEWIGYITSEYGVAYYATWAESRSTITRNTNLNTVTLKMTSLTAADTATYFCVRENPTYGYAYDAWGPGTLVTVSS VL: AYDLTQTPASVEAAVGGTVTINCQASESIGNELSWYQQKSGQPPKLLIYQASTLASGVPSRFKGSGSGTDFTLTISDLECADAATYYCAQGFSSSGVENVFGGGTEVVVK"
readout = "IC50"
endpoint_value = "> 0.1 µM"

[[record]]
binder = "2-3F4 (antibody, V domains shown) VH: QSVEESRGGLIKPTDTLTLTCTASGFSLSNYGVSWVRQAPGNGLEYIGFIGYGGSTYYASWAKSRSTITRNTNLNTVTLQMTSLTAADTATYFCARLCGVDCADALDSWGPGTLVTVSS VL: AYYMTQTPASVEVAVGGTVTIKCQASEDIGSYCSWYQQKPGQPPKLLIYDASDLASGVPSRFKGSGSGTDFTLTISGVQCDDAATYYCQQDYTGNNVDNTFGGGSEVVVK"
readout = "IC50"
endpoint_value = "> 0.1 µM"

[[record]]
binder = "9F2 (antibody, V domains shown) VH: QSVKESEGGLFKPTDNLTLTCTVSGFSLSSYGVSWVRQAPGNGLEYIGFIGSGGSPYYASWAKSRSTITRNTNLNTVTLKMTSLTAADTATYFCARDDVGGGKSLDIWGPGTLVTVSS VL: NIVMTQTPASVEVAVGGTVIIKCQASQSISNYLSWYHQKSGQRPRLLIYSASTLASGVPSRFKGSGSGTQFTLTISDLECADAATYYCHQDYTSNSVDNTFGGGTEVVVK"
readout = "IC50"
endpoint_value = "> 0.1 µM"

[[record]]
binder = "9H3 (antibody, V domains shown) VH: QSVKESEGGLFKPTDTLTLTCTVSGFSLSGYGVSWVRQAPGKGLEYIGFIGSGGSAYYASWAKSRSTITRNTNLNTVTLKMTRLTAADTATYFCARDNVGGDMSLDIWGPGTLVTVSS VL: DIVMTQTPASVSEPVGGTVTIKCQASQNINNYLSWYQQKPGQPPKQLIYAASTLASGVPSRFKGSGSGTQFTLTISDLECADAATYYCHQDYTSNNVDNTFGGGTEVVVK"
readout = "IC50"
endpoint_value = "> 0.1 µM"

[[record]]
binder = "9B6 (antibody, V domains shown) VH: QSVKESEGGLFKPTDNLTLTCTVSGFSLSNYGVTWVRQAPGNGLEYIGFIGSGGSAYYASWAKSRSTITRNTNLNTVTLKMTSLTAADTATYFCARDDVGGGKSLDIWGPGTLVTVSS VL: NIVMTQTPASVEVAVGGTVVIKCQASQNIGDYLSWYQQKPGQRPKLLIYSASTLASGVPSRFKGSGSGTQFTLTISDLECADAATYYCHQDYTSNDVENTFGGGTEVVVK"
readout = "IC50"
endpoint_value = "> 0.1 µM"

[[record]]
binder = "10H3 (antibody, V domains shown, also called KLK5.10H3 (complex sample)) VH: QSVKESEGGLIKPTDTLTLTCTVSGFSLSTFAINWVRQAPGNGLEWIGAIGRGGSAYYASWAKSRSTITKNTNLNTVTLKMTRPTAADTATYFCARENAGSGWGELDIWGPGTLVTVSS VL: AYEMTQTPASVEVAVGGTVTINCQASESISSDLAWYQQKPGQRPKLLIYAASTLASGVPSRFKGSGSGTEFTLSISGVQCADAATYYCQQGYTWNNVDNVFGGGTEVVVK"
readout = "IC50"
endpoint_value = "> 0.1 µM"

[[record]]
binder = "2B11 (antibody, V domains shown) VH: QSVKESEGGLFKPTDTLTLTCTVSGFSLINYGVSWVRQAPGKGLEWIGYIGSAGSTYYATWAKSRATITRNTNLNTVTLKMTSLTAADTATYFCARAAYSAGSADAEDIWGPGTLVTVSS VL: AYYMTQTPASVEAAVGGTVTIKCQASQSISNYVAWYQQKPGQPPKLLIYRASTLASGVSSRFSGSGSGTEFTLTISDLECADAATYYCHQGYSSSNVDNIFGGGTEVVVK"
readout = "IC50"
endpoint_value = "> 0.1 µM"


Consider the record given below.
Exam item: Output IC50 of 3-3F5 (antibody, V domains shown, Rabbit monoclonal; also called Chimeric 3-3F5) VH: QSVKESEGGLFKPTDTLTLTCTVSGFSLNDYGVSWVRQAPGNGLEWIGAIGSSGVAWYANWAKGRSTITRNTNLNTVTLKMASLTAADTATYFCARDRDYGYRADDATSGMDLWGPGTLVTVSS VL: AYDMTQTPASVEAAVGGTVTIKCQASESIGNALAWYQQKPGQPPKLLIYDASDLASGVPSRFKGSGSGTQFTLTISGVECADAATYYCQQGDSHNNVDNIFGGGTEVVVK
Marked response: > 0.1 µM
